# System: HepG2
# Assay text: GSK_TCMDC: Percent inhibition of human HepG2 cell line. Test compounds present at 10uM.
# Assay type: functional
Quantity measured: Inhibition (%)
Answer in %, number only, no unit symbol.

Record excerpt, results attached:
In [3]: df
Out[3]:
                                   compound  unit_annotation  result_value
0  N#CN1CC[C@@H](OC(=O)N[C@@H]2C[C@H]2c2ccccc2)C1                %             0
1  CNC(=O)C1Cc2c([nH]c3ccc(Cl)cc23)C2(CCN(CCc3ccccc3)CC2)N1 (centres undefined)                %             2
2  CCCCNC(=O)[C@@H](NC(=O)c1ccc(O)c(-c2ccc(Cl)c(Cl)c2)c1)C(C)C                %             0

Kindly note the recorded Inhibition for Nc1ccc2[nH]cc(C3CCN(CC4CCC(NC(=O)/C=C/c5ccccc5Cl)CC4)CC3)c2n1 (centres undefined) , which is 7

Kindly note the recorded Inhibition for `N#Cc1cccc(Nc2cc(C(F)(F)F)nc(Nc3ccccc3)n2)c1.O=C(O)C(F)(F)F` , which is 7

Kindly note the recorded Inhibition for `COc1cc2nc(C)nc(Nc3ccc4c(ccn4Cc4ccccc4)c3)c2cc1OC.Cl` , which is 2

Kindly note the recorded Inhibition for `Cn1cc(C2CCN(CCCCCNC(=O)/C=C/c3ccc(Cl)c(Cl)c3)CC2)c2cc(O)ccc21` , which is 11

Kindly note the recorded Inhibition for CC1(C)CC(NC(=O)NC2CCN(Cc3ccccc3)CC2)CC(C)(CNC(=O)NC2CCN(Cc3ccccc3)CC2)C1 (centres undefined) , which is 10

Kindly note the recorded Inhibition for `COc1ccc(S(=O)(=O)N2CCOCC2)cc1NC(=O)c1cc2ccccc2o1` , which is 8

----------
# System: Plasmodium falciparum
# Assay text: GSK_TCMDC: Inhibition of Plasmodium falciparum Dd2 in whole red blood cells, using parasite LDH activity as an index of growth. Test compounds present at 2uM
# Type: functional
Quantity measured: Inhibition (%)
Answer in %, number only, no unit symbol.

>>> print(df.to_string())
                                   molecule  result_value
0  CN1CCC(N2CCN(Cc3cccc(-c4ccc(-c5nc6cc(F)ccc6[nH]5)cc4)c3)CC2)CC1.O=C(O)C(F)(F)F           100
1  CCn1ccc2c(N3CCCS3(=O)=O)cc(C(=O)N[C@@H](Cc3ccccc3)[C@H](O)CNC(C)(C)c3cccc(OC)c3)cc21            98
2  CCN(CC(C)O)C(=O)c1ccc(-c2ccc(-c3nc4cccc(C)c4[nH]3)cc2)cc1 (centres undefined)            13
3  Clc1ccc(CNC2CCN(CC3CCCCC3)CC2)cc1.O=C(O)C(F)(F)F            15
4  Cc1cc(Br)cnc1CCCCNc1cc(=O)c2ccccc2[nH]1.Cl            64
5  CC1(C)CCCN(C(=O)c2cccc(-n3nc(-c4ccc(Cl)cc4)cc3N)c2)C1            98
6  CC1CN(c2cc(=O)n(Cc3ccc(NC(=O)Nc4ccc(-c5ccccc5)cc4)cc3)cn2)CC(C)N1.O=C(O)C(F)(F)F (centres undefined)            20
7  Cc1nc(C)c(-c2ccc(Oc3ccc(Cl)cc3)cc2)c(O)c1I            49

Known value: Plasmodium falciparum Inhibition of the molecule `Fc1ccc(Nc2ccnc3cc(-c4cccc(CNCCN5CCOCC5)c4)ccc23)c(Cl)c1` equals 99

Known value: Plasmodium falciparum Inhibition of the molecule COc1ccccc1C1CCN(C2CCC(NC(=O)/C=C/c3ccc(C(F)(F)F)cc3F)CC2)CC1 (centres undefined) equals 2

Known value: Plasmodium falciparum Inhibition of the molecule `NC(=O)c1cccc(CN2Cc3ccccc3OC3(CCN(Cc4c[nH]c5cnccc45)CC3)C2)c1.O=C(O)C(F)(F)F` equals 2

Known value: Plasmodium falciparum Inhibition of the molecule `CCOC(=O)NC1=NC(C)(C)N(OCCCOc2ccc(C)cc2C)C(NC(=O)OCC)=N1` equals 98

Known value: Plasmodium falciparum Inhibition of the molecule `CCNc1cc(C(=O)N[C@@H](Cc2ccccc2)[C@H](O)CNC2CCCCC2)cc(N2CCCCS2(=O)=O)c1` equals 98

Known value: Plasmodium falciparum Inhibition of the molecule COc1ccc(-n2nc(C)c3c2NC(=O)CC3c2ccccc2OCc2ccc(F)cc2)cc1 (centres undefined) equals 65

Known value: Plasmodium falciparum Inhibition of the molecule `CCn1c(SCC(=O)Nc2cc(C(F)(F)F)ccc2Cl)nc2ccccc2c1=O` equals 95

Known value: Plasmodium falciparum Inhibition of the molecule `Nc1nc(N)c2c(CCc3ccc(Cl)c(Cl)c3)cccc2n1` equals 83

Known value: Plasmodium falciparum Inhibition of the molecule `Cc1cccc2nc(-c3cccc(-c4ccc(NC(=O)c5cnn6cccnc56)cc4)c3)[nH]c12` equals 73

Known value: Plasmodium falciparum Inhibition of the molecule `Cc1ccc(NC(=O)c2ccc(CN3CCCN(CC4CCCCC4)CC3)cc2)cc1C.O=C(O)C(F)(F)F` equals 32

Known value: Plasmodium falciparum Inhibition of the molecule `CNC(=O)CNC(=O)COc1cccc2ccccc12` equals 0
